Data origin: the supplement of paper PMC10883282

# Tested on: HT1080
# PROTOCOL_NOTES: relative viability vs DMSO control (72 h) (fraction); higher = more viable cells
# EXPERIMENTAL_CONTEXT: 0.00051 µM
ENDPOINT: relative viability
Reply: number alone, nothing else.

Look over these answered cases.
Clc1ccc(Nc2nnc(Cc3ccncc3)c3ccccc23)cc1 : 0.995
Cc1cc2c(F)c(Oc3ncnn4cc(OC[C@@H](C)O)c(C)c34)ccc2[nH]1 : 1.03
COC(=O)[C@@]1(O)C[C@H]2O[C@]1(C)n1c3ccccc3c3c4c(c5c6ccccc6n2c5c31)C(=O)NC4 [K-252a] : 1.09
O=C(Nc1nc2cccc(-c3ccc(CN4CCS(=O)(=O)CC4)cc3)n2n1)C1CC1 : 1.13
Cn1cc(C2=C(c3cn(C4CCN(Cc5ccccn5)CC4)c4ccccc34)C(=O)NC2=O)c2ccccc21 : 1.14

# input Param readout = relative viability; param system = HT1080; param query = COc1cc(CCc2cc(NC(=O)c3ccc(N4CC(C)NC(C)C4)cc3)n[nH]2)cc(OC)c1 (centres undefined) ; response: value
# output 1.1

# input Param readout = relative viability; param system = HT1080; param query = O=c1sn(-c2cccc3ccccc23)c(=O)n1Cc1ccccc1 ; response: value
# output 1.08

# input Param readout = relative viability; param system = HT1080; param query = N#CC1(c2ccc(NC(=O)c3cccnc3NCc3ccncc3)cc2)CCCC1 ; response: value
# output 1.05

# input Param readout = relative viability; param system = HT1080; param query = O=C(Nc1ccc(OC(F)(F)Cl)cc1)c1cnc(N2CC[C@@H](O)C2)c(-c2cc[nH]n2)c1 ; response: value
# output 1.06
